TESTED ON: PARK7 (Homo sapiens, UniProt Q99497)
Sequence (Q99497 1-189): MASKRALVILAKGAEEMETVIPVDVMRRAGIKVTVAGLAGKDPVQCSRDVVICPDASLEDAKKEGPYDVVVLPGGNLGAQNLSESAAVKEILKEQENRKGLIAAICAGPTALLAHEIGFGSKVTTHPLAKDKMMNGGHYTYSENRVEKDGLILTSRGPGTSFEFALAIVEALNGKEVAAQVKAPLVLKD
TEST: High-throughput screen of the crude compound library, PARK7 fluorescence polarization (FP) assay with FP reagent JYQ-107
Format: biochemical
CONDITION DESCRIPTION: 1.25 µM, crude compound library; read-out: HTS FP assay %Inhibition (1.25 µM)
Below, each of the compounds is paired with its reported inhibition at 1.25 µM value.

# COMPOUND, inhibition at 1.25 µM (%)
rows = [
    ("N#CN1CC[C@@H](C(=O)Nc2nc3c(s2)CN(C(=O)C2CCN(Cc4ccc(Cl)s4)CC2)CC3)C1 [compound 23]", 68.4),
    ("N#CN1CC[C@@H](C(=O)Nc2nc3c(s2)CN(C(=O)c2ccnn2C2CCOCC2)CC3)C1 [compound 132]", 73.2),
    ("N#CN1CC[C@@H](C(=O)Nc2nc3c(s2)CN(C(=O)c2cc(S(=O)(=O)NCCCN4CCCC4=O)ccc2Cl)CC3)C1 [Compound 146]", 89.7),
    ("N#CN1CC[C@@H](C(=O)Nc2nc3c(s2)CN(C(=O)CC2CCN(c4ccc(C(F)(F)F)cn4)CC2)CC3)C1 [compound 291]", 79.8),
    ("N#CN1CC[C@@H](C(=O)Nc2nc3c(s2)CN(C(=O)Cc2csc(-c4cccs4)n2)CC3)C1 [compound 105]", 85.3),
    ("N#CN1CC[C@@H](C(=O)Nc2nc3c(s2)CN(C(=O)c2cnc(COc4ccccc4)s2)CC3)C1 [compound 70]", 85.9),
]
